normalized growth overview
measurement_protocol: chemical genetic growth profiling, strain panel (AID 1159580);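 further: tested at 20 µM; growth read once vehicle control cultures reached saturation at 30 °C; 1 = growth at the plate median or of vehicle wells; lower values mean less growth of the strain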
recorded_conditions: S. cerevisiae deletion strains, growth OD, locus YPL240C, strain hsp82, hits give low values
About 2,000 (36%) of roughly 5,500 compounds were called active. Roughly 18% stayed inconclusive and do not appear here. This is one part of the list.
Give the figure only, with no unit attached.

smiles_code=Cc1[nH]c2ccccc2c1CN(C)C reported_value=1.01
smiles_code=COc1ccc(-c2coc3cc(O)ccc3c2=O)c(OC)c1 reported_value=1.01
smiles_code=C=CCc1ccc(O)c(OC)c1 reported_value=0.993
smiles_code=CCCCCCCCCCC[C@@H](C[C@H]1OC(=O)[C@H]1CCCCCC)OC(=O)[C@@H](CC(C)C)NC=O reported_value=1.02
smiles_code=CCCCCCCCC(=O)NCc1ccc(O)c(OC)c1 reported_value=1
smiles_code=C=CCc1ccc(OC)cc1 reported_value=1.02

Task: Name the recorded normalized growth of the molecule listed here: COc1cc(CNC(=O)CCCC/C=C/C(C)C)ccc1O
Output: 0.991

Task: Name the recorded normalized growth of the molecule listed here: O=c1c(-c2ccc(O)cc2)coc2cc(O)ccc12
Output: 1
